Molecular target: T1, native human ApoC3 (human, UniProt P02656 21-99)
T1 construct: also called nhuApoC3; native huApoC3
T1 sequence (P02656 21-99): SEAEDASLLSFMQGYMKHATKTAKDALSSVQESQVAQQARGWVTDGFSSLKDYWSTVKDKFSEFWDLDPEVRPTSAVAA
Assay: SPR, ApoC3 over captured IgG1, pH 7.4
Method: An inverted SPR assay was designed in which a test antibody was captured on an SPR chip, human ApoC3 protein was injected, and binding of ApoC3 to the antibody was measured. […] The resulting sensorgrams were analyzed using the BIAevaluation 4.1 software using Langmuir 1:1 binding model to derive binding kinetics. […]
ASSAY_READOUT: kon (M⁻¹ s⁻¹)
// units = M⁻¹ s⁻¹; emit number, no label

Use the examples below as a reference point.
mAb3 (antibody, IgG1, V domains shown, Produced as full length IgG1 (kappa) in ExpiCHO-S cells; also called humanized anti-ApoC3 antibody mAb3) VH: QLVESGGGLVQPGGSLRLSCAASGFTFGTYSMRWVRQAPGKGLEWVSSIHTEGGGTAYRDSVKGRFTISRDNAKNTLYLQMNSLRAEDTAIYYCVIAGYSDWGQGTLVTVSS VL: DIVMTQSPLSLPVTPGESASISCKTSQGLVHSDGKTYFYWFLQKPGQSPQQLIYQVSNRASGVPDRFTGSGSGTDFTLKISRVKAEDAGVYYCAHGTYYPHTFGQGTRLEIK | 33400
mAb4 (antibody, IgG1, V domains shown, Produced as full length IgG1 (kappa) in ExpiCHO-S cells; also called humanized anti-ApoC3 antibody mAb4) VH: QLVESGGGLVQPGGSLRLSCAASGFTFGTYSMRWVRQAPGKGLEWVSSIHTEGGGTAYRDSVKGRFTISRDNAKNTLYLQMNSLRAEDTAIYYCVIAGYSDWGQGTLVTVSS VL: DIVMTQSPLSLPVTPGESASISCKTSQGLVHSDGKTYFYWFLQKPGQSPQQLIYQVSNRASGVPDRFSGSGSGTDFTLKISRVKAEDAGVYYCAHGTYYPHTFGQGTRLEIK | 45500

Value of measured kon for the entry mAb10 (antibody, IgG1, V domains shown, Produced as full length IgG1 (kappa) in ExpiCHO-S cells; also called humanized anti-ApoC3 antibody mAb10) VH: QLVESGGGLVQPGGSLRLSCAASGFTFSTYSMRWVRQVPGKGLEWVSSIHTEGGGTAYRDSVKGRFTISRDNAKNTLYLQMNNLRAEDTAVYYCVIAGYSDWGQGTLVTVSS VL: DIVMTQSPLSLSVVPGEPASISCKTSQGLVHSDGKTYFYWFLQKPGQSPQQLIYQVSNRASGVPDRFSGSGSGTDFTLKISRVEAEDVGVYYCAHGTYYPHTFGQGTRLEIK : 31900
